All values here come from patent US20230285581A1.

- experimentalSystem: human MSR1 extracellular domain expressed with a N-terminal nonahistidine tag (His9-hMSR1; R&D Systems, Cat #2708-MS) (human) (UniProt P21757)
- Sequence (P21757 other isoform, or with tags, fused parts or gaps): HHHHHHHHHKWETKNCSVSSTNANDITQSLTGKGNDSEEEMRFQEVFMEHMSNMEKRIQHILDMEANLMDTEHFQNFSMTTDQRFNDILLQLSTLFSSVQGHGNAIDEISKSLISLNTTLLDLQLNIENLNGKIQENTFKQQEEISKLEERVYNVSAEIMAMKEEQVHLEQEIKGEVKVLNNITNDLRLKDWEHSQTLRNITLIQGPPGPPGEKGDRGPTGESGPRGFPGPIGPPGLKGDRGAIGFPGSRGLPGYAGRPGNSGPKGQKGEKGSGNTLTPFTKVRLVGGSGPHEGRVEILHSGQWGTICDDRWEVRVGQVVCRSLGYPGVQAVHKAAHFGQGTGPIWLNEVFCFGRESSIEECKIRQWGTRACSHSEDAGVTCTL
- methodDescription: competition ELISA; 100 nM antibody, competitor Ac-LDL, plate-coated His9-hMSR1
quantityMeasured: % Blocking (%)

binder: H1H21227N-N297Q (antibody, human IgG1, V domains shown) VH: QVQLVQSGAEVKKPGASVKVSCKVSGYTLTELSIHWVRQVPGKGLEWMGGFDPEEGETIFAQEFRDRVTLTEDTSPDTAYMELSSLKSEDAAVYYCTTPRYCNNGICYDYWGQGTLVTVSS VL: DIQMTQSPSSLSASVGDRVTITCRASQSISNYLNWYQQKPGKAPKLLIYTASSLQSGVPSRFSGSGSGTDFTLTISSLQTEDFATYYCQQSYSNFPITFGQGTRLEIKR
reportedMeasurement: 105

binder: H2aM21229N (antibody, mouse IgG2a, V domains shown) VH: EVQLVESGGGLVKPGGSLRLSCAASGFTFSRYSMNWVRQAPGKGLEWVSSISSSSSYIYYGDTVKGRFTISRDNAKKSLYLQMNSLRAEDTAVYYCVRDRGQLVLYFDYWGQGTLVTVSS VL: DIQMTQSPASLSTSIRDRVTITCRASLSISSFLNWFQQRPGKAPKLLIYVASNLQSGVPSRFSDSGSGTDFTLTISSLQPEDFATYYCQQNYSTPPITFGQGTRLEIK
reportedMeasurement: -11
